// provenance: PubChem BioAssay (NCI)

- Test system: DU-145 prostate
- assay_explanation: NCI tumour cell line growth inhibition, 48 h
Would you kindly list TGI for each of these compounds?

Exercise: // TGI lookup, key: CC12CN(CC[N+](C)(C)C)CC1(C)C1CCC2O1 (stereo not given)
Solution: > 100 µM

Exercise: // TGI lookup, key: "CS(=O)(=O)c1ccc(N/N=C/c2c(-c3ccc(S(C)(=O)=O)cc3)[nH]c3ccc(F)cc23)cc1"
Solution: > 50 µM

Exercise: // TGI lookup, key: "CC(=O)O[C@H](C[C@H](C(C)C)N(C)C(=O)[C@@H](NC(=O)[C@H]1CCCCN1C)C(C)C)c1nc(C(=O)N[C@@H](Cc2ccccc2)C[C@H](C)C(=O)O)c(C)s1"
Solution: > 25 µM

Exercise: // TGI lookup, key: "O=C1C(=O)c2cc([N+](=O)[O-])ccc2-c2ccccc21"
Solution: 3.16 µM

Exercise: // TGI lookup, key: "CC[C@H](C)c1occ2c(O)c(C(=O)O)c(=O)cc-2c1C"
Solution: > 100 µM
